- experimental-target: T1, 5T4 17-25 variant R1A (alanine-substituted) peptide on HLA-A*02:01 (human)
- T1 peptide: ALARLALVL
- test-method-notes: killing
measured-attribute: binding result

binder	result-value
Clone19-5C2 (TCR, V domains shown) Valpha: AQTVTQSQPEMSVQEAETVTLSCTYDTSESDYYLFWYKQPPSRQMILVIRQEAYKQQNATENRFSVNFQKAAKSFSLKISDSQLGDAAMYFCAYRSGSDGGSQGNLIFGKGTKLSVKP Vbeta: ETGVTQTPRHLVMGMTNKKSLKCEQHLGHNAMYWYKQSAKKPLELMFVYSLEERVENNSVPSRFSPECPNSSHLFLHLHTLQPEDSALYLCASSQVSGYEQYFGPGTRLTVT	no recognition
Clone3-6C3 (TCR, V domains shown) Valpha: AQTVTQSQPEMSVQEAETVTLSCTYDTSESDYYLFWYKQPPSRQMILVIRQEAYKQQNATENRFSVNFQKAAKSFSLKISDSQLGDAAMYFCSSGGGADGLTFGKGTHLIIQP Vbeta: NAGVTQTPKFRVLKTGQSMTLLCAQDMNHEYMYWYRQDPGMGLRLIHYSVGEGTTAKGEVPDGYNVSRLKKQNFLLGLESAAPSQTSVYFCASMDLAFKQYFGPGTRLTVT	no recognition
Clone15-3F10 (TCR, V domains shown) Valpha: AQTVTQSQPEMSVQEAETVTLSCTYDTSENNYYLFWYKQPPSRQMILVIRQEAYKQQNATENRFSVNFQKAAKSFSLKISDSQLGDTAMYFCASMYSGGGADGLTFGKGTHLIIQP Vbeta: EAQVTQNPRYLITVTGKKLTVTCSQNMNHEYMSWYRQDPGLGLRQIYYSMNVEVTDKGDVPEGYKVSRKEKRNFPLILESPSPNQTSLYFCASSFFSNTGELFFGEGSRLTVL	recognises
Clone2-6B8 (TCR, V domains shown) Valpha: QKEVEQNSGPLSVPEGAIASLNCTYSDRGSQSFFWYRQYSGKSPELIMFIYSNGDKEDGRFTAQLNKASQYVSLLIRDSQPSDSATYLCAVPDDAGNMLTFGGGTRLMVKP Vbeta: DAGITQSPRYKITETGRQVTLMCHQTWSHSYMFWYRQDLGHGLRLIYYSAAADITDKGEVPDGYVVSRSKTENFPLTLESATRSQTSVYFCASSELPAGGTNEQFFGPGTRLTVL	recognises
Clone21-7A10 (TCR, V domains shown) Valpha: GQSLEQPSEVTAVEGAIVQINCTYQTSGFYGLSWYQQHDGGAPTFLSYNALDGLEETGRFSSFLSRSDSYGYLLLQELQMKDSASYFCAVRDDYGQNFVFGPGTRLSVLP Vbeta: NAGVMQNPRHLVRRRGQEARLRCSPMKGHSHVYWYRQLPEEGLKFMVYLQKENIIDESGMPKERFSAEFPKEGPSILRIQQVVRGDSAAYFCASSPQGDNEQFFGPGTRLTVL	recognises
